Data credit: ChEMBL document CHEMBL1255556

molecular target: 5-hydroxytryptamine receptor 1A (Homo sapiens); test: Binding affinity to human 5HT1A receptor expressed in HeLa cells by scintillation proximity assay; assay type: cell-based
Sequence (P08908 whole entry): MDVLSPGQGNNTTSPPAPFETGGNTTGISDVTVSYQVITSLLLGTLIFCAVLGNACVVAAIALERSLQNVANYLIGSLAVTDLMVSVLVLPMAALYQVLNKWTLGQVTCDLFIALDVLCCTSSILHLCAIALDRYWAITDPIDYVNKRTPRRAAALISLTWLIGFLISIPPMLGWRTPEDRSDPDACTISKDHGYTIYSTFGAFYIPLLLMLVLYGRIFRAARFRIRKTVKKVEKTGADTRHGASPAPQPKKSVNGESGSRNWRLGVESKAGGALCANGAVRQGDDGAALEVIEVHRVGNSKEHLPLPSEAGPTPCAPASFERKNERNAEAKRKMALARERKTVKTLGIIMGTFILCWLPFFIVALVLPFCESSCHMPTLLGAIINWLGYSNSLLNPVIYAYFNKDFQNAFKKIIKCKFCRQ
pKi: −log10 of the molar value.
Quantity: pKi

Worked cases, pKi given:
O=C1NCc2ccc(OCCCCN3CCN(c4cccc5cccc(F)c45)CC3)cc21 ... 9.02
Cc1cc2c(cc1OCCCN1CCN(c3cccc4cccc(F)c34)CC1)C(=O)NC2 ... 8.84
O=C1NCc2cc(F)c(OCCCCN3CCN(c4cccc5cc(F)ccc45)CC3)cc21 ... 8.57

1. Cc1c(OCCCN2CCN(c3cccc4cccc(F)c34)CC2)ccc2c1C(=O)NC2
2. O=C1NCc2ccc(OCCCCN3CCN(c4cccc5ccccc45)CC3)c(F)c21
3. O=C1NCc2ccc(OCCCCN3CCN(c4cccc5c4OCCC5)CC3)cc21
Enquiry: Sort low-to-high on pKi, please. Answer by writing out the labels in the requested order.
Return: 2, 1, 3
